test system: Pichia kudriavzevii; assay: Antifungal activity against Candida krusei Berkout KCCM 11655 after 1 day by broth dilution method; assay type: functional; details: KCCM 11655, 24 h
measure: MIC (µg/mL)

| molecule | uom | test.result |
| --- | --- | --- |
| Nc1nc(=O)[nH]cc1F [FLUCYTOSINE] | µg/mL | 50 |

1 = COc1ccc(NC2=CC(=O)c3cnncc3C2=O)cc1
2 = O=C1C(Cl)=C(Nc2ccc(Cl)cc2)C(=O)c2cnncc21
So which one has the bigger MIC here, 1 or 2 ? The response must carry the label of the picked entry.
1
(1: 12.5 µg/mL, 2: 6.3 µg/mL)

* * *

system: Candida albicans; experiment: Antifungal activity against Candida albicans Berkout KCCM 50235 after 1 day by broth dilution method; type: functional; settings: KCCM 50235, 24 h
measure: MIC (µg/mL)

Check out these entries, answers already filled in.
| smiles.data | measure | uom | test.result |
| --- | --- | --- | --- |
| O=C1C=C(Nc2ccc(F)cc2)C(=O)c2cnncc21 | MIC | µg/mL | 50 |
| Cc1cccc(SC2=C(Sc3cccc(C)c3)C(=O)c3cnncc3C2=O)c1 | MIC | µg/mL | 12.5 |

P = O=C1C(Cl)=C(Nc2ccc(Cl)cc2)C(=O)c2cnncc21
Q = O=C1C(Sc2ccc(O)cc2)=C(Sc2ccc(O)cc2)C(=O)c2cnncc21
Two entries are listed, P and Q . Which one carries the higher MIC? Reply briefly: the label of your chosen item.
Q
(Q: 100 µg/mL, P: 12.5 µg/mL)

* * *

tested on: Pichia kudriavzevii; experiment: Antifungal activity against Candida krusei Berkout KCCM 11655 after 1 day by broth dilution method; type: functional; conditions: KCCM 11655, 24 h
The entries below are paired with their reported MIC.

| smiles.data | target.desc | MIC |
| --- | --- | --- |
| O=C1C(Sc2cccc(Cl)c2)=C(Sc2cccc(Cl)c2)C(=O)c2cnncc21 | Pichia kudriavzevii | > 100 µg/mL |

Record `Cc1cccc(SC2=C(Sc3cccc(C)c3)C(=O)c3cnncc3C2=O)c1` , field MIC: > 100 µg/mL

`O=C1C(Sc2ccc(F)c(F)c2)=C(Sc2ccc(F)c(F)c2)C(=O)c2cnncc21` has a reported MIC of > 100 µg/mL

* * *

test system: Candida albicans; assay: Antifungal activity against Candida albicans Berkout KCCM 50235 after 1 day by broth dilution method; assay type: functional; conditions: KCCM 50235, 24 h
measure: MIC (µg/mL)

# count of solved cases: 3
| smiles.data | target.desc | MIC (µg/mL) |
| --- | --- | --- |
| COc1ccc(SC2=C(Sc3ccc(OC)cc3)C(=O)c3cnncc3C2=O)cc1 | Candida albicans | 25 |
| O=C1C(Sc2ccc(Br)cc2)=C(Sc2ccc(Br)cc2)C(=O)c2cnncc21 | Candida albicans | 50 |
| O=C1C=C(Nc2ccc(Br)cc2)C(=O)c2cnncc21 | Candida albicans | 12.5 |

P = O=C1C(Sc2ccc(F)cc2)=C(Sc2ccc(F)cc2)C(=O)c2cnncc21
Q = O=C1C(Cl)=C(Nc2ccc(F)c(F)c2)C(=O)c2cnncc21
Look at P and Q . Which one has the lower recorded MIC number? Refer to your chosen item by its label in the answer.
P

* * *

system: Pichia kudriavzevii; experiment: Antifungal activity against Candida krusei Berkout KCCM 11655 after 1 day by broth dilution method; type: functional; conditions: KCCM 11655, 24 h
Listed below: MIC values for each entry.

Worked examples follow.
| smiles.data | target.desc | test.result |
| --- | --- | --- |
| O=C1C(Sc2ccc(O)cc2)=C(Sc2ccc(O)cc2)C(=O)c2cnncc21 | Pichia kudriavzevii | > 100 µg/mL |
| O=C1C(Sc2ccc(Br)cc2)=C(Sc2ccc(Br)cc2)C(=O)c2cnncc21 | Pichia kudriavzevii | > 100 µg/mL |

// moving on: another record for MIC
Recorded result, `O=C1C(Cl)=C(Nc2ccc(F)c(F)c2)C(=O)c2cnncc21` , MIC: > 100 µg/mL
